In this section, each of the molecules is paired with its reported growth.
- System: MALME-3M melanoma
- test.details: NCI-60 one-dose screen, 48 h (100 = growth as untreated, 0 = no growth, -100 = all killed)
- run.parameters: 10 µM unless noted
About 83,000 compounds went through this panel and 20% of them were active in at least one assay; those are over-represented in the sample as a whole. Activity calls are given as the source filed them. Rule for the calls: active = growth percent below 10; inactive = the rest.

# molecule, study.system, growth
rows = [
    ("CC(C)C1=C[C@@]23CC[C@@H]4[C@](C)(CCC[C@@]4(C)C(=O)N4CCCNCC4)[C@H]2C[C@@H]1[C@H]1C(=O)CCC(=O)[C@H]13", "MALME-3M melanoma", "99.9% (inactive)"),
    ("COc1cc(-c2nc(C(=O)NCC(=O)NO)nn2-c2ccc(Cl)cc2)cc(OC)c1OC", "MALME-3M melanoma", "129% (inactive)"),
    ("COc1cc2c(cc1O)CC[C@@H]1[C@@H]2CC[C@]2(C)[C@@H](NCCN(C)C)CC[C@@H]12", "MALME-3M melanoma", "-72.5% (active)"),
    ("Nc1nc2ncc(CCNc3ccc(C(=O)O)cc3)nc2c(=O)[nH]1", "MALME-3M melanoma", "137% (inactive)"),
    ("O=C(CN(C(=O)Cn1c(=O)n2nnnc2c2ccccc21)c1ccccc1C(F)(F)F)Nc1ccc(C(F)(F)F)cc1", "MALME-3M melanoma", "103% (inactive)"),
    ("C=CC(COC(c1ccccc1)(c1ccccc1)c1ccccc1)N(CC)CC (stereo not drawn)", "MALME-3M melanoma", "61.9% (inactive)"),
    ("COc1ccc2c(c1)C(=O)/C(=C/c1cccnc1)CC2", "MALME-3M melanoma", "106% (inactive)"),
    ("O=C(N=Nc1c(O)[nH]c2ccc(Br)cc12)c1cc(-c2ccccc2)on1", "MALME-3M melanoma", "89.5% (inactive)"),
    ("Cc1cc(C)nc(SC2=C(Nc3cccc(Cl)c3C)C(=O)N(Cc3ccccc3)C2=O)n1", "MALME-3M melanoma", "58% [30 µM] (inactive)"),
    ("O=C1/C(=C/c2ccc(OCCCOc3ccc(Cl)cc3)cc2)N=C2SCCCN12", "MALME-3M melanoma", "122% (inactive)"),
    ("N#Cc1nnn(-c2ccc(S(N)(=O)=O)cc2)c1NC(=O)CCl", "MALME-3M melanoma", "102% (inactive)"),
    ("CN1CCN(c2ccc(Nc3c4ccccc4nc4ccccc34)cc2)CC1", "MALME-3M melanoma", "103% (inactive)"),
    ("COc1cc(/C=C/c2cc(/C=C/c3ccc(O)c(OC)c3)n(-c3c(Cl)cccc3Cl)c(=O)n2)ccc1O", "MALME-3M melanoma", "58.8% (inactive)"),
    ("Cc1c(/C=C/[N+](=O)[O-])ccc2c1[nH]c1ccccc12", "MALME-3M melanoma", "135% (inactive)"),
    ("CC1=C[C@H]2c3c(c(O)c(O)c4oc5cc(O)ccc5c(=O)c34)[C@H](c3cc(O)c(O)c4oc5cc(O)ccc5c(=O)c34)[C@H]2C(C)(C)C1", "MALME-3M melanoma", "60.8% (inactive)"),
    ("Cc1ccc(C(SCC(N)C(=O)O)(c2ccccc2)c2ccc(C)cc2)cc1 (stereo not drawn)", "MALME-3M melanoma", "19.8% (inactive)"),
    ("COc1ccc(Nc2nc(SC)nc(-c3cccc([N+](=O)[O-])c3)c2C#N)cc1", "MALME-3M melanoma", "61.7% (inactive)"),
    ("Cc1ccc(C2=NN3C(C2)c2cc(Br)ccc2OC32CCN(Cc3ccccc3)CC2)o1 (stereo not drawn)", "MALME-3M melanoma", "103% (inactive)"),
    ("OC(COc1cccc2ccccc12)CN1CCN(c2ccccc2Cl)CC1 (stereo not drawn)", "MALME-3M melanoma", "108% (inactive)"),
    ("COc1ccc(-c2n[nH]nc2-c2csc3ccccc23)cc1OC", "MALME-3M melanoma", "56.9% (inactive)"),
    ("Cc1ccccc1COc1ccc(-c2onc(C)c2-c2ccc(Cl)cc2)cc1", "MALME-3M melanoma", "59.8% (inactive)"),
    ("COc1ccc(/C=C/C(=O)c2ccc(O)c(CN3CCN(c4cc5c(cc4F)c(=O)c(C(=O)O)cn5C4CC4)CC3)c2)cc1", "MALME-3M melanoma", "30.4% (inactive)"),
    ("Cc1cc(C)c2nc3nc(C)cc(C)c3c(N)c2c1", "MALME-3M melanoma", "24% (inactive)"),
    ("COc1ccc(C(=O)COc2cccc(/C=C3\\CSc4ccccc4C3=O)c2)cc1", "MALME-3M melanoma", "-67.2% (active)"),
    ("CNc1ccc(-c2cc(=O)oc3ccc(Cl)cc23)cc1", "MALME-3M melanoma", "110% (inactive)"),
    ("COc1ccc(-c2nc(SCC(=O)Nc3ccc(C(=O)/C=C/c4ccc(Cl)cc4)cc3)[nH]c(=O)c2C#N)cc1", "MALME-3M melanoma", "95.4% (inactive)"),
    ("CCCCN1CCCn2c1nc1c2c(=O)n(CCC)c(=O)n1CCC", "MALME-3M melanoma", "123% (inactive)"),
    ("Cc1ccc2c(C(C[N+](=O)[O-])c3ccccc3F)c(-c3ccccc3)[nH]c2c1 (stereo not drawn)", "MALME-3M melanoma", "46.1% (inactive)"),
    ("FC(F)(F)c1[nH]ncc1-c1nc2ccc3n[nH]c(C#Cc4cccnc4)c3c2c2c1CCCC2", "MALME-3M melanoma", "22.8% (inactive)"),
    ("O=C(COc1ccc(/C=C2\\COc3ccccc3C2=O)cc1)Nc1nccs1", "MALME-3M melanoma", "88.5% (inactive)"),
    ("CCCSc1ccc2nc(NC(=O)OC)[nH]c2c1", "MALME-3M melanoma", "42% (inactive)"),
    ("COc1cccc2c1C(=O)c1c(O)c3c(c(O)c1C2=O)C[C@](O)(C(=O)CO)C[C@H]3O[C@@H]1C[C@@H](NC(=O)CCCCCN(C)C2(c3ccc(F)cc3)CC3CCC2C3)[C@H](O)[C@@H](C)O1 (stereo partly drawn)", "MALME-3M melanoma", "-70.9% (active)"),
    ("CN(CCCCCl)P(=O)(OCc1ccc([N+](=O)[O-])o1)C(F)(F)c1ccc(CC(=O)NC[C@@H](O)/C=C\\[C@@H](O)[C@H](CO)Cc2ccccc2)cc1 (stereo partly drawn)", "MALME-3M melanoma", "92.1% (inactive)"),
    ("O=C1NC(=O)C(c2ccc(Cl)cc2Cl)N1 (stereo not drawn)", "MALME-3M melanoma", "106% (inactive)"),
    ("CCCOc1cc2ccccc2cc1C(=O)Nc1nc(N)c2c(ccc3nccc32)[nH]1", "MALME-3M melanoma", "-76.1% (active)"),
    ("CSc1ccc(-c2n[nH]nc2-c2cc3ccccc3s2)cc1", "MALME-3M melanoma", "69.4% (inactive)"),
    ("CCN(CC)c1ccc(/C=N\\NC(=O)/C=C/C=C/c2ccc3c(c2)OCO3)c(O)c1", "MALME-3M melanoma", "56.5% (inactive)"),
    ("O=c1ccccc(-c2ccc(Br)cc2)c1O", "MALME-3M melanoma", "10.6% (inactive)"),
]
